- TESTED SYSTEM: I-A^b (Mus musculus, UniProt P14434+P14483)
- Sequence (P14434 whole entry, looked up): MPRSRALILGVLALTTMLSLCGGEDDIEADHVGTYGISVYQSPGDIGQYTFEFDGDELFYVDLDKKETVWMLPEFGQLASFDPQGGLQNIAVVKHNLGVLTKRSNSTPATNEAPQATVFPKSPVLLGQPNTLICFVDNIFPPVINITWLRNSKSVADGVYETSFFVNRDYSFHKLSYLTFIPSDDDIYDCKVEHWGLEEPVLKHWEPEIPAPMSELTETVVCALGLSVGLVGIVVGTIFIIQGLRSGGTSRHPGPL
- Sequence (P14483 whole entry, looked up): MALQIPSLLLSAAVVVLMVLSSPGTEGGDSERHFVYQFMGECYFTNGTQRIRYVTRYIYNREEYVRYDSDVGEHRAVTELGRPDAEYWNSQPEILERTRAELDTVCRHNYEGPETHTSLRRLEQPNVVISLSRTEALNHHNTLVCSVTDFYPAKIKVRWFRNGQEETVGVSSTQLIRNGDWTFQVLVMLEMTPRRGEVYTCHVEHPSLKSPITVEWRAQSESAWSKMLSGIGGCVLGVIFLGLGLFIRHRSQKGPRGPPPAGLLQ
- ASSAY NOTES: MHC2-SCALE peptide exchange with 2D-LCMS detection on I-A^b
- Type: binding
- CONDITION SET: single peptide, lowmCLIP-I-A^b, standard exchange pH 5, 2D-LCMS
RECORDED ENDPOINT: peptide exchange / binding to I-A^b by MHC2-SCALE, in words

CONSTRUCT SEQUENCE	TEST RESULT
VIMSAHSLTNSSSDF [M57-B]	binders
DRGVIMSAHSLTNSS [M57-A]	binders
